Data provenance is ChEMBL document CHEMBL1129040.

biological target: Sterol O-acyltransferase 1 (Rattus norvegicus); assay: In vitro inhibitory activity against acyl-coenzyme A:cholesterol acyltransferase 1 from rat hepatic microsomes.
Sequence (O70536 whole entry): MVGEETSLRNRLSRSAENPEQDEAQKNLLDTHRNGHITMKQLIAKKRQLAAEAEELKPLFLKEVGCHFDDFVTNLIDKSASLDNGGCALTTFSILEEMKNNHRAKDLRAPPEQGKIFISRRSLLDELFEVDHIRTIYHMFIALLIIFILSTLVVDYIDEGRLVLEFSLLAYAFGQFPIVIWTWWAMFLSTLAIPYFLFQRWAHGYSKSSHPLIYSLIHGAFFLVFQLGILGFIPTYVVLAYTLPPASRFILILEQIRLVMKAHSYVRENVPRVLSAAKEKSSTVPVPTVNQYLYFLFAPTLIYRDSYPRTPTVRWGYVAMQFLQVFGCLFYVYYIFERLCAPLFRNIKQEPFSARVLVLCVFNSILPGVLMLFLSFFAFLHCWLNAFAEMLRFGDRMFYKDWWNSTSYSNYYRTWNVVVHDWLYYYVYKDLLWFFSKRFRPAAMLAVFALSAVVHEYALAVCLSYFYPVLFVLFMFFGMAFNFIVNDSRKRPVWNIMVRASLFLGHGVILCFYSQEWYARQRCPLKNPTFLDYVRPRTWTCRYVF
Reported pIC50 values follow for various molecules
Here pIC50 is given on a logarithmic scale as minus log10 of the concentration in mol/L.

Guide cases for pIC50, answers given:
O=C(N[C@H]1CCCC[C@@H]1c1ccc(O)cc1)C(c1ccccc1)c1ccccc1 :: 6.22
O=C(N[C@@H]1c2ccccc2CC[C@@H]1c1ccc(O)cc1)C(c1ccccc1)c1ccccc1 :: 6.46
O=C(N[C@@H]1c2ccccc2CC[C@@H]1c1cccc(O)c1)C(c1ccccc1)c1ccccc1 :: 5.74
COc1ccc2c(c1)[C@H](NC(=O)C(c1ccccc1)c1ccccc1)[C@@H](c1ccc(O)cc1)CC2 :: 6.40
O=C(N[C@H]1c2ccccc2CC[C@@H]1c1ccc(O)cc1)C(c1ccccc1)c1ccccc1 :: 6.15

Next item in the queue.
Value of pIC50 reported for the molecule O=C(N[C@@H]1c2ccccc2C[C@@H]1c1ccc(O)cc1)C(c1ccccc1)c1ccccc1 is 7.00
